Kindly state % activity for each of the entries shown.
- tested-system: human calcium receptor (Homo sapiens, UniProt P41180, R990G)
- Construct: expressed in transfected cells; host or cells: HEK 293
- Sequence (P41180 20-1078 R990G): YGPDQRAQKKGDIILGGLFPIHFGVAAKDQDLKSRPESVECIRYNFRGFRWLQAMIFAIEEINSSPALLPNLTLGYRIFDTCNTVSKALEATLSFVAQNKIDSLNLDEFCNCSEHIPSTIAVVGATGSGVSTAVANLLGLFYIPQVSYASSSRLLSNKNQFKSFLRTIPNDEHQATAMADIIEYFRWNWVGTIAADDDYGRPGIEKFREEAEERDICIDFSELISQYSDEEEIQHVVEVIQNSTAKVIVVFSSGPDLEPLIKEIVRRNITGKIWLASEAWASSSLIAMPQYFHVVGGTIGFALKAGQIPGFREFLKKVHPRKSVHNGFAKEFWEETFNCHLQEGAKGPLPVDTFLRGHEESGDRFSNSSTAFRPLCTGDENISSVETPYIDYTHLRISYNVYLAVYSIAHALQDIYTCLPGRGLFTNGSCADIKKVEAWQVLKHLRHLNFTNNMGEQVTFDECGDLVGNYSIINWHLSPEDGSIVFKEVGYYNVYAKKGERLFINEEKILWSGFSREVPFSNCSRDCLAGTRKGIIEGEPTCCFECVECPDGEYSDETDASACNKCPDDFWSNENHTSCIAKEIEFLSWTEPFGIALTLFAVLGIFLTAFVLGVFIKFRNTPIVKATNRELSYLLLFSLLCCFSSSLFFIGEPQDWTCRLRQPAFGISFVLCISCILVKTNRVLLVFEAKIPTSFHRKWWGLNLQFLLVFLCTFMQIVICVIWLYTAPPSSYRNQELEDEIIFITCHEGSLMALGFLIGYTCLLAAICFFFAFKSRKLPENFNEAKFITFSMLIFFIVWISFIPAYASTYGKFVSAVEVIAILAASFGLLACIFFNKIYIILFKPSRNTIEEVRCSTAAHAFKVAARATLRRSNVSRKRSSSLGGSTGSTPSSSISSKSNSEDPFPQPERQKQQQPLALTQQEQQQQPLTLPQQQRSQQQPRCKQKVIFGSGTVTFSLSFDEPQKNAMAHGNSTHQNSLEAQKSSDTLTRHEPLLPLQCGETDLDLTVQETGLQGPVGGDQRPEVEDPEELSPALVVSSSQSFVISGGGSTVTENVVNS
- procedure-text: increases in [Ca^2+ ]i in HEK-293 cells expressing the human calcium receptor (fura-2 loaded HEK 293/pHuPCaR4.0 cells), % activity
- Type: cell-based
- condition-notes: 330 ng/mL
One number for each entry, in %.

// for each molecule below, give its % activity
1. COc1cccc([C@@H](C)NCCCc2ccccc2I)c1 [Compound 17R]
2. C[C@@H](N[C@H](C)c1cccc2ccccc12)c1ccccc1 [Compound 14O]
3. COc1cccc(C(C)NCc2ccc(OC)c(C)c2)c1 (centres unmarked) [Compound 23I]
4. C[C@@H](N[C@H](C)c1cccc2ccccc12)c1cccc(Cl)c1 [Compound 14Q]
5. CCC(NC(C)c1cccc2ccccc12)c1ccc(OC)cc1 (mixture of isomers) [Compound 17G]

[98, 119, 102, 101, 128]
